tested on: OVCAR-8 ovarian; assay: NCI tumour cell line growth inhibition, 48 h
Where a SMILES comes first, the peptide text is derived from it. The star is where a group is joined. Boc = CC(C)(C)OC(=O)*
observed-property: TGI

State, in one line, measured TGI of CC(C)(Cl)C(Br)CCC(=CCBr)CBr (mixture of isomers) 9.25 µM

State, in one line, measured TGI of `COc1ccccc1NC(=S)NNC(=O)c1cc(-c2ccccc2)nc2ccccc12` 49 µM

State, in one line, measured TGI of `COc1ccc(-c2nc(Nc3ccc(F)cc3)nc(Nc3ccc4c(c3)nc(C)n4Cc3ccccc3)n2)cc1` > 100 µM

State, in one line, measured TGI of `CCOC(=O)Nc1nc(-c2ccccc2)c(C)s1` > 100 µM

State, in one line, measured TGI of `CCOC(=O)C(=O)N=Nc1c(O)[nH]c2ccccc12` > 100 µM

State, in one line, measured TGI of `CCN1C2=C(SC(=S)C1=C1SC(C(=O)c3ccccc3)=C(C(=O)c3ccccc3)S1)SC(=Nc1ccccc1)C2=O` > 67.5 µM

State, in one line, measured TGI of OC1CCC(COC(c2ccccc2)(c2ccccc2)c2ccccc2)O1 (stereo unspecified) 35.8 µM

State, in one line, measured TGI of `O=C(NCCCNc1cc(-c2cn(-c3ccccc3)nc2-c2cccc(O)c2)ccn1)c1ccc(F)cc1` 21.2 µM

State, in one line, measured TGI of `COc1cc2c(OC)c3cc(C)oc(=O)c3c(O)c2c(O)c1-c1c(OC)cc2c(OC)c3cc(C)oc(=O)c3c(O)c2c1O` 30 µM

State, in one line, measured TGI of `NNC(=S)N/N=C/c1ccccn1` > 100 µM

State, in one line, measured TGI of `Cc1ccc(C2=NN=C3C(c4ccccc4)=Nc4ccccc4N3C2)cc1` > 100 µM

State, in one line, measured TGI of `O=C(CSc1nc(-c2ccccc2)c(-c2ccccc2)[nH]1)N/N=C/c1ccc([N+](=O)[O-])cc1` 25.4 µM

State, in one line, measured TGI of CN1CCC2(CC1)C(=O)N(NC(N)=O)C(=O)C2c1ccccc1 (stereo unspecified) > 100 µM

State, in one line, measured TGI of `CCOC(=O)c1csc(NC(=O)CCN2CCOCC2)n1` 87.2 µM

State, in one line, measured TGI of `CN(CCNc1ccc(C(=N)N)cc1)c1ccc(C(=N)N)cc1` > 100 µM

State, in one line, measured TGI of `CC(=O)OCc1cc(OC(C)=O)c2cc3c(OC(C)=O)cccc3c(OC(C)=O)c2c1` 35.4 µM

State, in one line, measured TGI of CC(=O)OC1C(COC(N)=O)OC(n2c(-c3ccc(C)cc3)cc(-c3ccccc3)c(C#N)c2=O)C(OC(C)=O)C1OC(C)=O (stereo unspecified) > 100 µM

State, in one line, measured TGI of `Cc1cc(C)c(S(=O)(=O)N(CCCCCCN)OCCCON(CCCCCCN)S(=O)(=O)c2c(C)cc(C)cc2C)c(C)c1` 3.34 µM

State, in one line, measured TGI of COc1cc(Br)cc2c1O[C@H]1C(=O)CC3CC21CCN3C (stereo partly specified) 71.7 µM

State, in one line, measured TGI of CNC(=O)CNC(=O)C(NC(=O)CNC(=O)C1CCCN1C(=O)C(C)NC(=O)C(NC(=O)OC(C)(C)C)C(C)C)C(C)C (stereo unspecified) (Boc-VAPGVG-NHMe; configuration not given here) > 100 µM

State, in one line, measured TGI of `Cc1cc(C)c2c(=O)cc(-c3ccccc3)[nH]c2c1` 46.9 µM

State, in one line, measured TGI of `Cc1ccc(C)n1-n1c(Cc2ccc(Cl)cc2)n[nH]c1=O` > 100 µM

State, in one line, measured TGI of O=C(OC1C#CCSCC#C/C=C\1)c1cnc2ccccc2n1 (stereo unspecified) > 100 µM

State, in one line, measured TGI of CC(=O)OC12c3ccccc3C(c3ccccc31)C1C(=O)N(Nc3ccccc3)C(=O)C12 (stereo unspecified) > 100 µM

State, in one line, measured TGI of `CCCc1c(O)c2ccccc2[nH]c1=O` > 100 µM

State, in one line, measured TGI of `O=P1(O)c2ccccc2CSCc2ccccc21` > 100 µM

State, in one line, measured TGI of `Cc1ccc([I+]c2ccc(C)cc2)cc1` 46.5 µM

State, in one line, measured TGI of `CN1CCN(Cn2nc(-c3ccccc3)n(/N=C/c3ccc(-c4ccc(Cl)cc4Cl)o3)c2=S)CC1` 25.8 µM

State, in one line, measured TGI of `Cc1cc2c(=O)cc(-c3ccc(Cl)cc3Cl)oc2c(C(=O)O)c1C` > 100 µM

State, in one line, measured TGI of COC1OC(CO)C(O)C(NC(=O)N(C)N=O)C1O (stereo unspecified) > 100 µM

State, in one line, measured TGI of `COc1ccc(/C=C2\N=C(N3CCOCC3)NC2=O)cc1` > 100 µM

State, in one line, measured TGI of Cc1ccc(S(=O)OC2c3ccccc3Cc3ccccc32)cc1 (stereo unspecified) 28.9 µM

State, in one line, measured TGI of `COc1cc(S(=O)(=O)Nc2ccc(-c3csc(/N=C\c4ccccc4O)n3)cc2)ccc1Cl` > 100 µM

State, in one line, measured TGI of `CC1(C)CC(=O)c2c(nc3c(ccc4ccccc43)c2-c2ccc(NC(=O)CCCCCCCCC(=O)Nc3ccc(-c4c5c(nc6c4ccc4ccccc46)CC(C)(C)CC5=O)cc3)cc2)C1` > 100 µM

State, in one line, measured TGI of `NC(=S)Nc1c(S(N)(=O)=O)cc(S(N)(=O)=O)c(Cl)c1Cl` > 100 µM

State, in one line, measured TGI of `CN1CCN(C(=O)OCc2nc3c(N4CCOCC4)nc(-c4ccccc4)nc3n2C)CC1` 3.04 µM

State, in one line, measured TGI of `Cc1ccc(NCCO)cc1` > 100 µM

State, in one line, measured TGI of c1ccc(C2C3=C(c4ccccc4CC3)N3c4cc5nc6ccccc6nc5cc4NC34CCCCC24)cc1 (stereo unspecified) > 10 µM

State, in one line, measured TGI of `COc1ccc(/C=C/C(=O)c2ccc(B(O)O)cc2)cc1O` > 77.9 µM

State, in one line, measured TGI of `O=C(O)c1cc(C(=O)C(=O)c2cc(C(=O)O)c(O)c3ccccc23)c2ccccc2c1O` > 100 µM

State, in one line, measured TGI of `Nc1c2ccccc2nc2nccnc12` > 100 µM
